- Target system: Monoglyceride lipase (Homo sapiens)
- Assay comment: Inhibition of MGL in human recombinant MGL
Metric name: IC50

Entry under review: `CCCCCCCCCCCCNC(=O)Oc1ccccc1-c1csnn1` . Reported IC50?
18 µM

----------
- Target system: Fatty-acid amide hydrolase 1 (Rattus norvegicus)
- Sequence (P97612 whole entry): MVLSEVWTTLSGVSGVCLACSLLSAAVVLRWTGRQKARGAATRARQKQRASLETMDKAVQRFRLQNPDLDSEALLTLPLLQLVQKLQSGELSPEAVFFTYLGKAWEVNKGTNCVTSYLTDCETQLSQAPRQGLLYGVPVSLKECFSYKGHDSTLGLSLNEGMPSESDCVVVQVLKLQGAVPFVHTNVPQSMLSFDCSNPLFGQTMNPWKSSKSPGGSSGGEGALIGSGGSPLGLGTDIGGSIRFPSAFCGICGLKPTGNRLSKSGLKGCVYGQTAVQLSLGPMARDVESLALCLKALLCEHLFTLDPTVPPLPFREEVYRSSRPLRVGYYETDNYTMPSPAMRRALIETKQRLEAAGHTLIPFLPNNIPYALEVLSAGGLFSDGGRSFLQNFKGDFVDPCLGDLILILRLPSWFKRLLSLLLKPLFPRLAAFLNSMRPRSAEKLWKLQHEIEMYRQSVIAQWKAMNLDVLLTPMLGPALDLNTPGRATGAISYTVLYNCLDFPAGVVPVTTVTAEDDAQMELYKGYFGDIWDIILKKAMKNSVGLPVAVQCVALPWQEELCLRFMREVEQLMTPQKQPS
- Assay comment: Inhibition of FAAH-mediated hydrolysis of [3H]anandamide in rat RBL2H3 cells
- Assay type: cell-based, RBL-2H3
Metric name: pIC50
Here pIC50 is given on a logarithmic scale as minus log10 of the concentration in mol/L.

Entry under review: `CCCCCCCCCCCCNC(=O)Oc1ccc(-c2csnn2)cc1` . Reported pIC50?
7.09

----------
Give measured residual activity for each item. Keep answers brief.
- Target system: Monoglyceride lipase (Rattus norvegicus) (UniProt Q8R431)
- Sequence (whole entry): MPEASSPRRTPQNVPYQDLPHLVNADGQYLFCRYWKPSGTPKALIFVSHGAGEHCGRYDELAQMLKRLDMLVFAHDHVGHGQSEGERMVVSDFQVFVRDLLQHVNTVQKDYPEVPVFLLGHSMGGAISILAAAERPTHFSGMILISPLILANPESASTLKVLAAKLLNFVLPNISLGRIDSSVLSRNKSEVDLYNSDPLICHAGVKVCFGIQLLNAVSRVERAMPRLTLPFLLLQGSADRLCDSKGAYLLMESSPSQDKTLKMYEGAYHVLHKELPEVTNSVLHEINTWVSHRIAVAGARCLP
- Assay comment: Inhibition of MGL in Wistar rat cerebral membrane assessed as residual activity at 1 mM by HPLC; values are per cent of control
Give a bare numeral; the unit % is implied.

Entry under review: `O=C(NCc1ccccc1)Oc1ccc(-c2csnn2)cc1` . Reported residual activity?
22

Entry `CCCCCCNC(=O)Oc1ccc(Br)cc1` please
16

Entry `Cc1ccccc1CNC(=O)Oc1ccc(C2=NCCO2)cc1` please
12

Entry `CCCNC(=O)Oc1ccc(C2=NCCS2)cc1` please
6

Entry `CCCCNC(=O)Oc1ccc(-c2csnn2)cc1` please
22

Entry `Cc1ccc(CNC(=O)Oc2ccc(C3=NCCO3)cc2)cc1` please
6

Entry `CCCCCCCCCCCCNC(=O)Oc1cccc(-c2csnn2)c1` please
13

Entry `COc1ccc(CNC(=O)Oc2ccc(C3=NCCS3)cc2)cc1` please
21

Entry `CCNC(=O)Oc1ccc(C2=NCCS2)cc1` please
12

Entry `O=C(NC1CCCC1)Oc1ccc(C2=NCCO2)cc1` please
21
